// provenance: ChEMBL document CHEMBL3044763

protocol_summary: Toxicity in Mus musculus ddY (mouse) assessed as mortality at 225 mg/kg, ip after 2 days
Type: organism-based
Design: dose 225 mg/kg, route intraperitoneal
measurement_parameters: in vivo
measured_endpoint: mortality at 48 h (%)

| smiles_data | unit_info | readout_value |
| --- | --- | --- |
| CN1C(=O)CSC1=S | % | 20 |

----------
protocol_summary: Toxicity in Mus musculus ddY (mouse) assessed as mortality at 4 mg/kg, ip after 4 days
Type: organism-based
Set-up: dose 4 mg/kg, route intraperitoneal
measurement_parameters: in vivo
measured_endpoint: mortality at 96 h (%)

| smiles_data | readout_value |
| --- | --- |
| NN1C(=O)CSC1=S | 20 |

----------
protocol_summary: Toxicity in Mus musculus ddY (mouse) assessed as mortality at 200 mg/kg, ip after 6 days
Format: organism-based
Design: dose 200 mg/kg, route intraperitoneal
measurement_parameters: in vivo

| molecule | unit_info | mortality at 144 h |
| --- | --- | --- |
| CN1C(=O)CSC1=S [3-METHYL-RHODANINE] | % | 0 |

----------
protocol_summary: Toxicity in Mus musculus ddY (mouse) assessed as mortality at 650 mg/kg, ip after 5 days
Type: organism-based
Design: dose 650 mg/kg, route intraperitoneal
measurement_parameters: in vivo
measured_endpoint: mortality at 120 h (%)

| smiles_data | readout_value |
| --- | --- |
| O=C(O)CN1C(=O)CSC1=S | 100 |

----------
protocol_summary: Toxicity in Mus musculus ddY (mouse) assessed as mortality at 4 mg/kg, ip after 6 days
Format: organism-based
Set-up: dose 4 mg/kg, route intraperitoneal
measurement_parameters: in vivo

| smiles_data | mortality at 144 h |
| --- | --- |
| NN1C(=O)CSC1=S | 20% |

----------
protocol_summary: Toxicity in Mus musculus ddY (mouse) assessed as mortality at 6 mg/kg, ip after 2 days
Format: organism-based
Design: dose 6 mg/kg, route intraperitoneal
measurement_parameters: in vivo

| compound | mortality at 48 h |
| --- | --- |
| NN1C(=O)CSC1=S [AMINORHODANINE] | 60% |

----------
protocol_summary: Toxicity in Mus musculus ddY (mouse) assessed as mortality at 325 mg/kg, ip after 4 days
Type: organism-based
Design: dose 325 mg/kg, route intraperitoneal
measurement_parameters: in vivo
Catalogue of compounds with associated mortality at 96 h

| compound | mortality at 96 h / % |
| --- | --- |
| O=C1CSC(=S)N1 [RHODANINE] | 80 |
| CN1C(=O)CSC1=S [3-METHYL-RHODANINE] | 100 |

----------
Catalogue of molecules with associated mortality at 144 h
protocol_summary: Toxicity in Mus musculus ddY (mouse) assessed as mortality at 275 mg/kg, ip after 6 days
Assay type: organism-based
Set-up: dose 275 mg/kg, route intraperitoneal
measurement_parameters: in vivo

| molecule | mortality at 144 h |
| --- | --- |
| O=C1CSC(=S)N1 [RHODANINE] | 0% |
| CN1C(=O)CSC1=S [3-METHYL-RHODANINE] | 80% |

----------
protocol_summary: Toxicity in Mus musculus ddY (mouse) assessed as mortality at 650 mg/kg, ip after 3 days
Assay type: organism-based
Design: dose 650 mg/kg, route intraperitoneal
measurement_parameters: in vivo

| smiles_data | unit_info | mortality at 72 h |
| --- | --- | --- |
| O=C(O)CN1C(=O)CSC1=S | % | 100 |
